Molecular target: T1, hFc-hFasL (fusion protein of human Fc fragment and human FasL extracellular region) (human, UniProt P48023 134-281)
T1 sequence: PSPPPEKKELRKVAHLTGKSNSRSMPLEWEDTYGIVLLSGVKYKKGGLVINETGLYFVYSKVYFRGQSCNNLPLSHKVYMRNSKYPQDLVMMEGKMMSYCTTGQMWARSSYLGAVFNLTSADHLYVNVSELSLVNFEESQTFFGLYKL
Experiment: cell-based or functional assay
Rule: HepG2 IC50(nM), FasL antigen-induced cell apoptosis below 0.02 nM gives Yes. Equal to or above 0.02 nM gives No.

# binder, class.label
rows = [
    ("humFL-M88-9 (antibody, human IgG4, V domains shown, Humanized FL-M88) VH: QVQLVQSGAEVKKPGASVKVSCKGSGYTFTDYTIHWVRQAPGQGLEWMGVISTYQGDASYNQKFKGRATMTVDKSTSTAYMELSSLRSEDTAVYYCARFPDWDYAMDYWGQGTLVTVSS VL: EIVMTQSPATLSVSPGERATLSCKASQSVDYDGDSYMNWYQQKPGQAPRLLIYAASNLESGIPARFSGSGSGTEFTLTISSLQSEDFAVYYCQHSRELPYTFGQGTKLEIK", "No"),
    ("humFL-M88-5 (antibody, human IgG4, V domains shown, Humanized FL-M88) VH: QVQLVQSGAEVKKPGASVKVSCKGSGYTFTDYTIHWVRQAPGQGLEWMGVISTYQGDASYNQKFKGRVTMTVDKSTSTVYMELSSLRSEDTAVYYCARFPDWDYAMDYWGQGTLVTVSS VL: EIVMTQSPATLSVSPGERATLSCKASQSVDYDGDSYMNWYQQKPGQPPRLLIYAASNLESGIPARFSGSGSGTEFTLTISSLQSEDFAVYYCQHSRELPYTFGQGTKLEIK", "No"),
]

Query :: Say whether its HepG2 IC50(nM), FasL antigen-induced cell apoptosis is strictly beneath 0.02 nM. Entry: humFL-M88-13 (antibody, human IgG4, V domains shown, Humanized FL-M88) VH: QVQLVQSGAEVKKPGASVKVSCKGSGYTFTDYTIHWVRQAPGQGLEWIGVISTYQGDASYNQKFKGRATMTVDKSTSTAYMELSSLRSEDTAVYYCARFPDWDYAMDYWGQGTLVTVSS VL: EIVMTQSPATLSVSPGERATLSCKASQSVDYDGDSYMNWYQQKPGQPPRLLIYAASNLESGIPARFSGSGSGTEFTLTISSLQSEDFAVYYCQQSRELPYTFGQGTKLEIK
Result :: Yes

Query :: Say whether its HepG2 IC50(nM), FasL antigen-induced cell apoptosis is strictly beneath 0.02 nM. Entry: humFL-M88-4 (antibody, human IgG4, V domains shown, Humanized FL-M88) VH: QVQLVQSGAEVKKPGASVKVSCKGSGYTFTDYTIHWVRQAPGQGLEWMGVISTYQGDASYNQKFKGRVTMTVDKSTSTAYMELSSLRSEDTAVYYCARFPDWDYAMDYWGQGTLVTVSS VL: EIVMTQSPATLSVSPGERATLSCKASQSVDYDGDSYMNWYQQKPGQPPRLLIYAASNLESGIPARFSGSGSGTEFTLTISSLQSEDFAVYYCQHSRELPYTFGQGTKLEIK
Result :: No
